# maps each entry to its pIC50
# experimental.system: JAK1 (Homo sapiens (Human), UniProt P23458)
# Sequence (P23458 whole entry): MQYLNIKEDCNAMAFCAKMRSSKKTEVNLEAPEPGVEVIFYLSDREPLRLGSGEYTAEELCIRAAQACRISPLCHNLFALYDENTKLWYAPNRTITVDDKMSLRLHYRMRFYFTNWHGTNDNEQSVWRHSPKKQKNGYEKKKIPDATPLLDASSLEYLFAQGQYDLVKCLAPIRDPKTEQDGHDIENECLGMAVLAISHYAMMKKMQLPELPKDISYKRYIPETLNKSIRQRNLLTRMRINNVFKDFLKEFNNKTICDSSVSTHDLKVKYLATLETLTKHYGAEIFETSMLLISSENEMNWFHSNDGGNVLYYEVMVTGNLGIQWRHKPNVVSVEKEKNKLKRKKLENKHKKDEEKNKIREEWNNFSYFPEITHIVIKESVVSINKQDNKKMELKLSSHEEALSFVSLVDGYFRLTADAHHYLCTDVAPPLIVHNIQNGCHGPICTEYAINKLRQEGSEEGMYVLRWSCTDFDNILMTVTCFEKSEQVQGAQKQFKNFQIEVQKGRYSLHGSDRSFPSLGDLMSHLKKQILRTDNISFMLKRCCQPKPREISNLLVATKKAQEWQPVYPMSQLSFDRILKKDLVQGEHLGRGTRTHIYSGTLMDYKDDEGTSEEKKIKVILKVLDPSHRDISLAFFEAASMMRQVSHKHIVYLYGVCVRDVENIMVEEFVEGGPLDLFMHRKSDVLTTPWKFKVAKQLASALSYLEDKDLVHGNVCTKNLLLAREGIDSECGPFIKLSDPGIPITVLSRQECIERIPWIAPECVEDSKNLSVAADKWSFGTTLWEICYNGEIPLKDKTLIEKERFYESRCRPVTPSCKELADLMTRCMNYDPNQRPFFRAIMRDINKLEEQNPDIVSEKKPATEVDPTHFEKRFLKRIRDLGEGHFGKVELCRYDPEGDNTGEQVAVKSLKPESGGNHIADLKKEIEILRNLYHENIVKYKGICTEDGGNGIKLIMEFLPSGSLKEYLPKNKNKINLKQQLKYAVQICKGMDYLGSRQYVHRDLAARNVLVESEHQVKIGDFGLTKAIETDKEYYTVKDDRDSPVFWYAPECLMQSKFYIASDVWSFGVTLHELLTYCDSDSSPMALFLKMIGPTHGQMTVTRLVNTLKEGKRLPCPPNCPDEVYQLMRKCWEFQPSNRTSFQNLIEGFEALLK
# measurement.protocol: JAK enzymatic assay (peptide mobility shift), JAK1
# measurement.setup: recombinant JAK1 20 nM, IRS-1 peptide, 240 minutes
# Protocol: Recombinant JAK1 (Catalog Number PV4775), JAK2 (Catalog Number PV4210) and JAK3 (Catalog Number PV3855) were purchased from (Invitrogen Corporation, Madison, Wis.). […] Compounds were diluted serially in 100% dimethyl sulfoxide and tested in an 11 point dose response in duplicate or quadruplicate (200 nl of compound/DMSO was added per 10 L reaction). […] Data was analyzed using Hits Well Analyzer Software from (Caliper Life Sciences) to obtain the amount of product formed. […]
A value of pIC50 is the negative decimal logarithm of a concentration given in moles per litre.

- C[C@H]1CN(S(=O)(=O)C[C@H]2CC[C@H](N(C)c3ncnc4[nH]ccc34)CC2)C[C@@H]1CO [Example 135]: 11.70
- CN(c1ncnc2[nH]ccc12)[C@H]1CC[C@H](CS(=O)(=O)N2CCC[C@H](O)C2)CC1 [Example 14]: 8.27
- CN(c1ncnc2[nH]ccc12)[C@H]1CC[C@H](CS(=O)(=O)N2C[C@](C)(CO)[C@](C)(CO)C2)CC1 [Example 79]: 7.84
- CN(c1ncnc2[nH]ccc12)[C@H]1CC[C@H](CS(=O)(=O)N2CC[C@@](O)(Cn3cccn3)C2)CC1 [Example 90]: 8.74

[in] Read off the recorded pIC50 for C[C@H]1CCCN(S(=O)(=O)C[C@H]2CC[C@H](N(C)c3ncnc4[nH]ccc34)CC2)C1 [Example 61]
[out] 7.97

[in] Kindly indicate its recorded pIC50. Item: CN(c1ncnc2[nH]ccc12)[C@H]1CC[C@H](CS(=O)(=O)N2CC[C@@H](O)[C@H](O)C2)CC1 [Example 12]
[out] 8.37

[in] Determine its reported pIC50: CN(c1ncnc2[nH]ccc12)[C@H]1CC[C@H](CS(=O)(=O)N2CC[C@@H](CO)C2)CC1 [Example 30]
[out] 8.51

----------
Items are presented alongside their recorded log10 of IC50.
# experimental.system: JAK3 (Homo sapiens (Human), UniProt P52333)
# Sequence (P52333 781-1124): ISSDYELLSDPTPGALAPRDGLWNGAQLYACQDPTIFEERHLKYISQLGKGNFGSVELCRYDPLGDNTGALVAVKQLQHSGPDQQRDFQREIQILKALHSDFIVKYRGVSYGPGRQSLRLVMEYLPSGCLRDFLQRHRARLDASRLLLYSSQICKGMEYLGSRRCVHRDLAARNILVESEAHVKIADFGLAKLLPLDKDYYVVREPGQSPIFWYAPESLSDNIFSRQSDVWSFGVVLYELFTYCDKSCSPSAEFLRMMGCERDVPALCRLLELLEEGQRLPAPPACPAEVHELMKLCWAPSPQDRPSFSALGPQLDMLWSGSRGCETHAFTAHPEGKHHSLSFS
# measurement.protocol: JAK enzymatic assay (peptide mobility shift), JAK3
# measurement.setup: recombinant JAK3 1 nM, JAKtide peptide, 90 minutes
On a log10 scale: recorded IC50, unit nM.

- CN(c1ncnc2[nH]ccc12)[C@H]1CC[C@H](CS(=O)(=O)N2CCN(c3ncccc3C#N)CC2)CC1: 2.43
- CN(c1ncnc2[nH]ccc12)[C@H]1CC[C@H](CS(=O)(=O)N2CC(S(=O)(=O)c3ccccc3)C2)CC1: 1.80
- COCCC1(C(N)=O)CCN(S(=O)(=O)C[C@H]2CC[C@H](N(C)c3ncnc4[nH]ccc34)CC2)CC1: 1.60

[in] Using JAK3 (Homo sapiens (Human), UniProt P52333) as the test system, report measured log10 of IC50 of CN(c1ncnc2[nH]ccc12)[C@H]1CC[C@H](CS(=O)(=O)N2CCC[C@@](C)(CO)C2)CC1 .
[out] 2.74

[in] State the measured log10 of IC50 (JAK3 (Homo sapiens (Human), UniProt P52333)) of CN(C)S(=O)(=O)C[C@H]1CCCN(S(=O)(=O)C[C@H]2CC[C@H](N(C)c3ncnc4[nH]ccc34)CC2)C1
[out] 2.66

[in] Provide JAK3 (Homo sapiens (Human), UniProt P52333) log10 of IC50 reading for CN(c1ncnc2[nH]ccc12)[C@H]1CC[C@H](CS(=O)(=O)N2CCC[C@@](C)(O)C2)CC1 .
[out] 2.63

[in] State, for JAK3 (Homo sapiens (Human), UniProt P52333), measured log10 of IC50 of the compound listed here: CN(c1ncnc2[nH]ccc12)[C@H]1CC[C@H](CS(=O)(=O)N2CC[C@H](NC(=O)C(F)(F)F)C2)CC1
[out] 2.60
